- Test system: G-clamp-N3 (biotin conjugate)
- test: pull-down binding Z-score (relative to library population); higher = stronger binding
- assay.setup: RNA library: Library-1 (pre-miRNA loops + repeats)
result.type: pull-down binding Z-score
Quick one: just the number, no unit, thanks!

[Q] So what does the record say about pull-down binding Z-score for CCAAGCUUAGUUUGG [hsa-mir-1302-11_1302-10_1302-3_1302-2_1302-9] ?
[A] 0.00542

[Q] So what does the record say about pull-down binding Z-score for GCUGGGGACUGGAGAA [hsa-mir-4489] ?
[A] 2.08

[Q] So what does the record say about pull-down binding Z-score for CGUUCCAAUGCGACACCUCUAGAGUGUCAUCCCCUAGAAUGUCACCUUGGAAAG [hsa-mir-4432] ?
[A] -1.26

[Q] So what does the record say about pull-down binding Z-score for CAAAGACCAGAACUUAAUGGUCUCUG [hsa-mir-4490] ?
[A] 0.704

[Q] So what does the record say about pull-down binding Z-score for GCUGAGGUUGCGUUGACGCUCGC [hsa-mir-1292] ?
[A] 0.447

[Q] So what does the record say about pull-down binding Z-score for UGUUGGUUGAAGAUGCCUUUCAACA [hsa-mir-552] ?
[A] 0.0946

[Q] So what does the record say about pull-down binding Z-score for CCGACUCUGAGUAUGAUAGAAGUC [hsa-mir-148a] ?
[A] -1.56

[Q] So what does the record say about pull-down binding Z-score for GCAGCCAGUCCUGUCUCACCGC [hsa-mir-6812] ?
[A] -0.666

[Q] So what does the record say about pull-down binding Z-score for GGGGCUCUU [hsa-mir-4634] ?
[A] -0.697

[Q] So what does the record say about pull-down binding Z-score for GUUGUUGUCUUACUGCGCUCAACAAC [hsa-mir-7-2] ?
[A] 0.767

[Q] So what does the record say about pull-down binding Z-score for GUGUGGAGAGAGCACUGAGCCUGCCCACC [hsa-mir-6849] ?
[A] -0.498

###

- Tested on: TO-N3 (biotin conjugate)
- test: pull-down binding Z-score (relative to library population); higher = stronger binding
- assay.setup: RNA library: Library-2
result.type: pull-down binding Z-score
Quick one: just the number, no unit, thanks!

[Q] So what does the record say about pull-down binding Z-score for GUAAUGAUCCAUUUUUGGGUGUUUAUUAC [DMSMaPseq_invitro_SARS-CoV-2_Motif_387] ?
[A] -0.308

[Q] So what does the record say about pull-down binding Z-score for UCAUUAAUUGA ?
[A] -1.27

[Q] So what does the record say about pull-down binding Z-score for UAAUGCUCUGAAAAUGACUCCAAUCAUUA [hsa-mir-3202-2] ?
[A] -0.741

[Q] So what does the record say about pull-down binding Z-score for AGGUAAGUAUGAUACUUACCUG [U1snRNP5ss-2] ?
[A] -0.856

[Q] So what does the record say about pull-down binding Z-score for UUUGCCAUUACUUUCAGUAGCAAA [hsa-mir-548c] ?
[A] -0.379

[Q] So what does the record say about pull-down binding Z-score for UGUGGACAAGGGCCUUGUCUUAGACAGUCACU [hsa-mir-4318] ?
[A] 0.983

[Q] So what does the record say about pull-down binding Z-score for GUCUUGGGGUGGGGGAUCAAGAC [hsa-mir-642a] ?
[A] 2.61

[Q] So what does the record say about pull-down binding Z-score for CGAGCCGCUUCCUCACGGCUCG [hsa-mir-4665] ?
[A] -1.04

[Q] So what does the record say about pull-down binding Z-score for AAAAUGUUUGUCAUAAACCGUUUU [hsa-mir-335] ?
[A] -0.158

[Q] So what does the record say about pull-down binding Z-score for CUCACUGCAGAAUUAUUUUGAG [hsa-mir-4524a] ?
[A] -0.869

[Q] So what does the record say about pull-down binding Z-score for UUUUCGCUUUAUAUGUGACGAAAC [hsa-mir-495] ?
[A] -0.787
